System: MALME-3M melanoma
protocol: NCI tumour cell line growth inhibition, 48 h
attribute-measured: TGI (µM)
Numbers only, in µM.

CC(=O)NCCC1CN(C(=O)/C=C/I)c2ccccc21 (centres undefined): 26.3
O=C1c2cc3c(cc2[C@@H]2[C@H]1c1ccc([N+](=O)[O-])cc1C(=O)N2CCCBr)OCO3: 0.168
O=C(Nc1ccc(Br)cc1F)c1cc(I)ccc1O: 5.56

// moving on: another record for TGI
Lookup: # get_value(readout='TGI', item= O=C(C/C(=N/O)C(=O)NC1=C(Cl)C(=O)c2ccccc2C1=O)CC(c1ccccc1)c1c(O)c2ccccc2oc1=O (centres undefined) )
Found: 4.55
